- Test system: hMSCs
- ASSAY_SUMMARY: STRO-1 stemness marker expression in hMSCs (immunostaining, ImageJ quantification)
- Format: cell-based, Human
- MEASUREMENT_SETUP: SEQ ID NO: 1 to 49 tested in combination with a bioactive carrier (titanium, ceramics, PEEK, hydrogel, etc.)
Hi! Just check whether STRO-1 expression is below 20%. Below gives yes (1), equal or above gives no (0).

ASASPSSVSQDLSAISMLYL [SEQ ID NO: 15] : yes (1)
GGGKASSVPTKLSAISMLYL [SEQ ID NO: 21] : no (0)
WWFWGSAGPSSTPTKMSAISMLYL (WWFWGSAGPXXTPTKMSAISMLYL; GFR-binding peptide; MOD_RES (10)..(11): Xaa is C or S) [SEQ ID NO: 22] : no (0)
HVTKPTSVPEKLSSLSILFF [SEQ ID NO: 9] : no (0)
STPPTSSVPTRLSAISMLYL [SEQ ID NO: 3] : yes (1)
HVPKPSSAPTKLSAISMLYL [SEQ ID NO: 12] : no (0)
TVPKPSSAPTQLSAISMLYL [SEQ ID NO: 18] : no (0)
AASKASSVPEKLSSLSILFF [SEQ ID NO: 41] : no (0)
GTPGPVPTELSPISVLYK (GFR-binding peptide) [SEQ ID NO: 25] : yes (1)

# TODO verify STRO-1 expression < 20% strictly for this sequence: VPAEESPISILYI (CVPAEESPISILYI; GFR-binding peptide) [SEQ ID NO: 48]
no (0)

====

Provide the recorded STRO-1 expression for the entries that follow.
- System: hMSCs
- ASSAY_SUMMARY: STRO-1 stemness marker expression in hMSCs (immunostaining, ImageJ quantification)
- Type: cell-based, Human
- MEASUREMENT_SETUP: grafted on a PET surface
Answers are plain numbers, in %.

Consider the following illustrative entries.
SATSRLALSDVPAELAA (Previously reported sequence) [SEQ ID NO: 1112, reference compound] : 98
VGAAWWLREQGSPINTLAVPA (Previously reported sequence) [SEQ ID NO: 1103, reference compound] : 88
LGIAAIIFLQQVPAAFSATSPPG (Previously reported sequence) [SEQ ID NO: 1113, reference compound] : 97
PIIYYVGRNVRVEQLSNMVVRRA (Previously reported sequence) [SEQ ID NO: 1088, reference compound] : 98
KIPKPSSAPTELSAISMLC (Previously reported sequence) [SEQ ID NO: 1132, reference compound] : 82
CCAPTQLSAISVLYFDDSSNVILKKYRNMVVRACGCR (Previously reported sequence) [SEQ ID NO: 1140, reference compound] : 82
NEVLRFCGIQVPEGDEPLT (Previously reported sequence) [SEQ ID NO: 1094, reference compound] : 98
FDSRVLKSAISFKENIIF (Previously reported sequence) [SEQ ID NO: 1128, reference compound] : 89
SPISILVVPELDASLPEKRPSLDGFEALLVYNAPKA (Previously reported sequence) [SEQ ID NO: 1106, reference compound] : 82
LNEVLRFCGIQVPEGDEPLTY (Previously reported sequence) [SEQ ID NO: 1095, reference compound] : 99

List STRO-1 expression for every entry below, keeping the order given.
1. VHLLKPHAVPKACCAPTKLSATSVLYYDSSNNVILRKHRNMVVRACGCH (Previously reported sequence) [SEQ ID NO: 1118, reference compound]
2. PIIYYVGRNVRVEQLSNMVVRA (Previously reported sequence) [SEQ ID NO: 1087, reference compound]
3. NPGASASPCCVSQDLEPLPIL (Previously reported sequence) [SEQ ID NO: 1098, reference compound]

1. 88
2. 92
3. 86

====

- Test system: hMSCs
- ASSAY_SUMMARY: STRO-1 stemness marker expression in hMSCs (immunostaining, ImageJ quantification)
- Format: cell-based, Human
- MEASUREMENT_SETUP: grafted on a PET surface
MEASUREMENT_KIND: STRO-1 expression (%)
Numbers only, in %.

Consider the following illustrative entries.
KPCCAPTELSAISVLYFDDSSNVILKKYRNMVVRACGCR (Previously reported sequence) [SEQ ID NO: 1142, reference compound] : 83
VPTKLEPISVLYKDDMGVPTLKYHYEGMAVSECGCR (Previously reported sequence) [SEQ ID NO: 1105, reference compound] : 81

Under hMSCs: STRO-1 expression value of PNYSVPAGNKPLSERE (Previously reported sequence) [SEQ ID NO: 1100, reference compound] ?
95

====

Provide the recorded STRO-1 expression for the entries that follow.
- System: hMSCs
- ASSAY_SUMMARY: STRO-1 stemness marker expression in hMSCs (immunostaining, ImageJ quantification)
- Type: cell-based, Human
- MEASUREMENT_SETUP: grafted on a PET surface
For clarity, give the value followed by its unit.

SVPAVCSATSATGPYSSVTVTSWPSIVATGGTT (Previously reported sequence) [SEQ ID NO: 1114, reference compound] : 92%

List STRO-1 expression for every entry below, keeping the order given.
1. HIRSTTSSYVSLKSNITNRTIQTPTYSYT (Previously reported sequence) [SEQ ID NO: 1092, reference compound]
2. CPKPSSAPTELSAISMLL (Previously reported sequence) [SEQ ID NO: 1130, reference compound]

["98%", "79%"]

====

- System: hMSCs
- ASSAY_SUMMARY: STRO-1 stemness marker expression in hMSCs (immunostaining, ImageJ quantification)
- Format: cell-based, Human
- MEASUREMENT_SETUP: SEQ ID NO: 1143 to 1180 tested in solution
MEASUREMENT_KIND: STRO-1 expression (%)
One number for each entry, in %.

AASKASSSRVELRSVKIAKV (GFR-binding peptide) [SEQ ID NO: 1152] : 33
RVPSTSSTQVKMSAISMLYL (GFR-binding peptide) [SEQ ID NO: 1155] : 17
GIPEPSSVSQEESSLSTLFF (GFR-binding peptide) [SEQ ID NO: 1156] : 19
STPPTSSVSQKMKPLSILYV (GFR-binding peptide) [SEQ ID NO: 1170] : 25
KIPKASSTPTRLSPISMLFI (GFR-binding peptide) [SEQ ID NO: 1163] : 28
GIPEPSSAPTRLEPISMLYL (GFR-binding peptide) [SEQ ID NO: 1164] : 16
KIPKASSVSQQLEPISTLYL (GFR-binding peptide) [SEQ ID NO: 1165] : 17
KIPKASSVPAQLEPLPIVYY (GFR-binding peptide) [SEQ ID NO: 1171] : 28

Turning now to a further sequence:
Name the recorded STRO-1 expression for GIPEPSSAPVEEEPLTTLYY (GFR-binding peptide) [SEQ ID NO: 1174] .
21

====

- System: hMSCs
- ASSAY_SUMMARY: STRO-1 stemness marker expression in hMSCs (immunostaining, ImageJ quantification)
- Format: cell-based, Human
- MEASUREMENT_SETUP: grafted on a PET surface
Provide the recorded STRO-1 expression for the entries that follow.
Answers are plain numbers, in %.

List STRO-1 expression for every entry below, keeping the order given.
1. APTKLNAISVLYFDDSSNVILKKYRNMIVKS (Previously reported sequence) [SEQ ID NO: 1126, reference compound]
2. VPTKLSPISILYLDKGVVTYKFKYEGMSVAECGCR (Previously reported sequence) [SEQ ID NO: 1108, reference compound]
3. SRVLPIVVQGYVPVQDTKFLGIYYVIGPIIARVILSSSSAISSLNKS (Previously reported sequence) [SEQ ID NO: 1138, reference compound]
4. MQCRELVTQVTEEPISQTEDGEEQESTTTPRLKGQKKE (Previously reported sequence) [SEQ ID NO: 1104, reference compound]
5. SHQSAGDSIKSPARHSAPTHQEPLPD (Previously reported sequence) [SEQ ID NO: 1099, reference compound]
6. SFRTARANAPTGRSSLSGEKEQQEASTHS (Previously reported sequence) [SEQ ID NO: 1120, reference compound]

1: 84; 2: 80; 3: 84; 4: 85; 5: 91; 6: 91

====

- System: hMSCs
- ASSAY_SUMMARY: STRO-1 stemness marker expression in hMSCs (immunostaining, ImageJ quantification)
- Assay type: cell-based, Human
- MEASUREMENT_SETUP: SEQ ID NO: 1 to 49 tested in combination with a bioactive carrier (titanium, ceramics, PEEK, hydrogel, etc.)
No end group written: not given here.
MEASUREMENT_KIND: STRO-1 expression (%)
Answers are plain numbers, in %.

GTPGPGSAGPSSTPTKMSAISMLYL (GTPGPGSAGPXXTPTKMSAISMLYL; GFR-binding peptide; MOD_RES (11)..(12): Xaa is C or S) [SEQ ID NO: 34] : 26
NDEGLESAPTGQNAISVLYF [SEQ ID NO: 5] : 27
VPAGQSPISILYI (CVPAGQSPISILYI; GFR-binding peptide) [SEQ ID NO: 46] : 20
ASASPSSTQVDLRPVQVRKI [SEQ ID NO: 40] : 36
GTPGPPSSVPTKLSPISVLYK (GTPGPPXXVPTKLSPISVLYK; GFR-binding peptide; MOD_RES (7)..(8): Xaa is C or S) [SEQ ID NO: 30] : 26
KVGKASSVSQKLEPLTILYY [SEQ ID NO: 10] : 32
KVGKASSVPTKLSNITMQIM [SEQ ID NO: 39] : 32
KVGKASSVPTKLEPLTILYY [SEQ ID NO: 13] : 26

List STRO-1 expression for every entry below, keeping the order given.
1. GTPGPAAPASSSVPARLSAISMLYL (not fully specified) [SEQ ID NO: 35]
2. GIPEPSSVPEKMSATSVLYY [SEQ ID NO: 7]
3. RNVQSRPTQVQLSAISMLYL [SEQ ID NO: 14]
4. KIPKASSVPTELSATSVLYY [SEQ ID NO: 6]
5. WWFWGAAPASSSVPTRLSPISVLYK (WWFWGAAPASXXVPTRLSPISVLYK; GFR-binding peptide; MOD_RES (11)..(12): Xaa is C or S) [SEQ ID NO: 32]
6. GSAGPSSVPTKMSPISVLYK [SEQ ID NO: 8]
7. KVGKASSVPTKLSAISMLYL [SEQ ID NO: 20]
8. GIPEPSSVPAKMSPISILYI [SEQ ID NO: 49]

[19, 22, 16, 25, 27, 31, 19, 19]

List STRO-1 expression for every entry below, keeping the order given.
1. GTPGPNDEGLESAPTGQNAISVLYF (GTPGPNDEGLEXAPTGQNAISVLYF; GFR-binding peptide; MOD_RES (12)..(12): Xaa is C or S) [SEQ ID NO: 31]
2. GTPGPVPTGQSAISMLYL (GFR-binding peptide) [SEQ ID NO: 27]
3. RVPSTSSVPAKTSPISILYI [SEQ ID NO: 43]
4. GTPGPVPQELEPLTILYY (GFR-binding peptide) [SEQ ID NO: 24]
5. GTPGPPTSVPTKLSPISVLYK (GFR-binding peptide) [SEQ ID NO: 29]

1. 32
2. 24
3. 15
4. 16
5. 27

List STRO-1 expression for every entry below, keeping the order given.
1. ASAAPSSVPAALSPISILYI [SEQ ID NO: 44]
2. NDEGLESAPTEENAISVLYF [SEQ ID NO: 4]
3. GTPGPHVTKPTSVPTKLSAISMLYL (GTPGPHVTKPTXVPTKLSAISMLYL; GFR-binding peptide; MOD_RES (12)..(12): Xaa is C or S) [SEQ ID NO: 23]

15
22
28

List STRO-1 expression for every entry below, keeping the order given.
1. KIPKASSVSQELEPLTILYY [SEQ ID NO: 37]
2. NDEGLESVPTGQNAISVLYF [SEQ ID NO: 17]

[17, 31]

Name the recorded STRO-1 expression for WWFWGKASKASSVPTKLSAISMLYL (WWFWGKASKAXXVPTKLSAISMLYL; GFR-binding peptide; MOD_RES (11)..(12): Xaa is C or S) [SEQ ID NO: 33] .
26

Origin of values: patent US11578110B2
